- ASSAYED SYSTEM: FGFR
- Construct: fused on or other part: GST tag
- EXPERIMENT SUMMARY: FGFR kinase HTRF assay
- RUN PARAMETERS: 1.5 nM activated FGFR, 10 μM ATP; read-out: Inhibition of FGFR IC50
Would you mind telling me the reported pIC50 of each entry?
Give bare numbers, as −log10 of the molar value.

>>> print(df.to_string())
                               given_smiles  assayed_system  test_result
0  COc1cc2c(cc1C(N)=O)C(c1ccccc1Cl)=Nc1c(n[nH]c1C)N2            FGFR         7.49
1  COc1cc2c(cc1F)C(c1ccccc1Cl)=Nc1c(n[nH]c1C)N2            FGFR         7.55
2  Cc1cc2c(cc1C)C(c1ccccc1Cl)=Nc1c(n[nH]c1C)N2            FGFR         7.42

Could you please provide reported pIC50 for Cc1[nH]nc2c1N=C(c1ccccc1Cl)c1cc(C#N)c(OCCCN3CCOCC3)cc1N2 ? Thanks! 7.48

Taken from patent US7524840B2.
